Give phosphorylation enrichment for every item shown.
Target: Fyn (UniProt P06241)
Sequence (P06241 whole entry, looked up): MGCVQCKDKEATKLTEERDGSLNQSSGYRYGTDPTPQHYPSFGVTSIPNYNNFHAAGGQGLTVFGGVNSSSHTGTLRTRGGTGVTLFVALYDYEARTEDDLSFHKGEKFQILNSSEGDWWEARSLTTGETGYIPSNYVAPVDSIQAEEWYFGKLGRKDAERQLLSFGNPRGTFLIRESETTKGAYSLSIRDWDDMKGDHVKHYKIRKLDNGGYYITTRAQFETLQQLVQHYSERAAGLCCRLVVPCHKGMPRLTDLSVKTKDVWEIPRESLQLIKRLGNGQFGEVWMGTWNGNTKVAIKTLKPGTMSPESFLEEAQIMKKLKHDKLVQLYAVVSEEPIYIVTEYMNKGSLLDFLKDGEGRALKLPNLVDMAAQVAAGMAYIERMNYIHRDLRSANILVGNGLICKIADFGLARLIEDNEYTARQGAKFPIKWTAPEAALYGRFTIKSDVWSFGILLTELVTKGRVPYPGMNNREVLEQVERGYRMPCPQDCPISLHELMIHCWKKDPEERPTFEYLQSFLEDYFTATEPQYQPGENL
Test: phosphorylation enrichment, bacterial display (enrichment ratio); higher = better substrate or ligand; peptides without Tyr show the background;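 also: 11-residue human phosphosite peptides and single-mutation variants displayed on the E. coli surface, counted by deep sequencing, each peptide's frequency after selection divided by its frequency in the unselected input library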;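 also: frequency after pTyr selection over input frequency; kinase dosed for 20-30% of maximal phosphorylation in three min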
Enter the number alone.

Inquiry: Any idea what its phosphorylation enrichment is? The sequence is ETLLFYGFRRS [POR_Y564_C566Y_YF]
Reply text: 0.431

Inquiry: Now give it for KDQGGYAMHQD [MAPT_Y29_T30A] too.
Reply text: 0.392

Inquiry: Likewise for CTTIHYNYMCK [TP53_Y234_N239K] ?
Reply text: 0.482

Inquiry: Please answer likewise for EVQKDYEHLFK [PAM16_Y77_N76D]
Reply text: 0.478

Inquiry: Similarly, HELFVYKSDEN [DOCK3_Y548_C550S_YF] ?
Reply text: 0.734

Inquiry: Subsequent entry: EVDETYVPKKF [ALB_Y521_E525K]
Reply text: 0.454

Inquiry: // next record FLNSIYQSRDE [ROS1_Y2227_K2228Q]
Reply text: 4.07

Inquiry: Similarly, ARGMEYLASQK [FGFR2_Y616] ?
Reply text: 0.534

Inquiry: Please answer likewise for MGCVNYGAFIN [GLB1_Y485_R482C_YF]
Reply text: 0.553

Inquiry: Here is the next sequence: NKEAIYSGFIR [SMCHD1_Y283_YF]
Reply text: 14.5

Inquiry: Item: SVQIVYKPVDL [MAPT_Y627]
Reply text: 0.4

Inquiry: And the next one, LARDIYKNDYY [ROS1_Y2110] ?
Reply text: 0.854

Inquiry: Follow-up item: AQADIYKADFQ [IKBKG_Y308]
Reply text: 0.734

Inquiry: Same read-out for NTYEKYLGEEY [TF_Y669] ?
Reply text: 0.974

The measurements presented in this section are drawn from the supplement of paper PMC10065799.
